Value source: ChEMBL document CHEMBL4190276

system: Amine oxidase [flavin-containing] B (Homo sapiens)
Sequence (P27338 whole entry): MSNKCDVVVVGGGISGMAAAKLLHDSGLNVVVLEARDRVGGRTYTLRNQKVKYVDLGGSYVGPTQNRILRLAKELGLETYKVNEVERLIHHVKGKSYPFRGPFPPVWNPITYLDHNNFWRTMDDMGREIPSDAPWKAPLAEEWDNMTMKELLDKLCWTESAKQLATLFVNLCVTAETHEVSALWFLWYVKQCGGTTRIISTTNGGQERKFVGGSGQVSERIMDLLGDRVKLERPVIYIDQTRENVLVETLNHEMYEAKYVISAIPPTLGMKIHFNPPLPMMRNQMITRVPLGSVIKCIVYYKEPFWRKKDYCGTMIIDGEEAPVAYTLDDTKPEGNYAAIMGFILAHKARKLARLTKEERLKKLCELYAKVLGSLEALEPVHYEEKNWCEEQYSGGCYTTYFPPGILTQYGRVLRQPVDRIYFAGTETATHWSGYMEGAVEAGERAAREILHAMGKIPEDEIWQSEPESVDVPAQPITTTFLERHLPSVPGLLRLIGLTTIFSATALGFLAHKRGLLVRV
assay: Inhibition of recombinant human MAO-B using p-tyramine as substrate preincubated for 15 mins followed by substrate addition measured after 20 mins by amplex red reagent based fluorescence assay
pIC50: −log10 of the molar value.
quantityMeasured: pIC50

{"recordSmiles": "C#CCN(CCCCOc1ccc2ccc(=O)oc2c1)Cc1cccc(OC)c1", "assayValue": 5.63}
{"recordSmiles": "C#CCN(CCOc1ccc2ccc(=O)oc2c1)Cc1ccc(OC)cc1", "assayValue": 5.45}
{"recordSmiles": "C#CCN(CCCCOc1ccc2ccc(=O)oc2c1)Cc1cccc(F)c1", "assayValue": 5.81}

[A] C#CCN(CCCCOc1ccc2ccc(=O)oc2c1)Cc1ccc(F)c(F)c1
[B] C#CCN(CCCCOc1ccc2ccc(=O)oc2c1)Cc1ccccc1
[C] C#CCN(CCCOc1ccc2ccc(=O)oc2c1)Cc1ccc(C)cc1
Prompt: hey, can you rank those compounds up there by pIC50? biggest number first please # respond with the labels, arranged in the requested order
Completion: B, A, C
(B: 6.01, A: 5.63, C: 5.13)

---

system: Amyloid-beta precursor protein (Homo sapiens)
assay: Inhibition of self-induced Amyloid beta (1 to 42) (unknown origin) aggregation at 25 uM after 48 hrs by thioflavin T-based fluorometric assay relative to control
quantityMeasured: inhibition (%)

Some solved entries appear below for comparison.
{"recordSmiles": "C#CCN(CCCCOc1ccc2ccc(=O)oc2c1)Cc1ccc(OC)cc1", "assayValue": 49.1}
{"recordSmiles": "C#CCN(CCCCOc1ccc2ccc(=O)oc2c1)Cc1ccc(F)c(F)c1", "assayValue": 30.6}
{"recordSmiles": "C#CCN(C)CCOc1ccc2ccc(=O)oc2c1", "assayValue": 36.4}
{"recordSmiles": "C#CCN(CCCCOc1ccc2ccc(=O)oc2c1)Cc1ccc(C)cc1", "assayValue": 50}

[P] C#CCN(C)CCCOc1ccc2ccc(=O)oc2c1
[Q] C#CCN(CCCCOc1ccc2ccc(=O)oc2c1)Cc1cccc(OC)c1
Prompt: Compare the recorded inhibition of P and Q ; state which is larger. Give the chosen item's label as your response.
Completion: P

---

system: Amine oxidase [flavin-containing] A (Homo sapiens, UniProt P21397)
Sequence (P21397 whole entry): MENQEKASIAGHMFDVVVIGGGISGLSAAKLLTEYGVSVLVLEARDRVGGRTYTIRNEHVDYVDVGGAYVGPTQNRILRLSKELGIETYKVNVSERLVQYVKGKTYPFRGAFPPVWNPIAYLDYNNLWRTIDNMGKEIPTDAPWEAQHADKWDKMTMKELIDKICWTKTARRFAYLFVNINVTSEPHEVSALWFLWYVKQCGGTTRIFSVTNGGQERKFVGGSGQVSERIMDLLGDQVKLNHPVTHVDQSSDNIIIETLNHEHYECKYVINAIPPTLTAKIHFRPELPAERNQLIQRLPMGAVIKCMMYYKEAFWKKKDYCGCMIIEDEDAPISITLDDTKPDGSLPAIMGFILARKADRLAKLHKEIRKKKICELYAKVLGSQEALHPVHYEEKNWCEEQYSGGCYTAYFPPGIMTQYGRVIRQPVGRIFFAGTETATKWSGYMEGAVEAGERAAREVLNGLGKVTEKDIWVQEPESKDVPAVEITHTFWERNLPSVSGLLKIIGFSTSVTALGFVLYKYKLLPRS
assay: Inhibition of recombinant human MAO-A using p-tyramine as substrate preincubated for 15 mins followed by substrate addition measured after 20 mins by amplex red reagent based fluorescence assay
pIC50: −log10 of the molar value.
quantityMeasured: pIC50

Some solved entries appear below for comparison.
{"recordSmiles": "C#CCN(CCCOc1ccc2ccc(=O)oc2c1)Cc1ccc(OC)cc1", "quantityMeasured": "pIC50", "assayValue": 4.22}
{"recordSmiles": "C#CCN(CCCOc1ccc2ccc(=O)oc2c1)Cc1ccccc1", "quantityMeasured": "pIC50", "assayValue": 4.41}
{"recordSmiles": "C#CCN(CCOc1ccc2ccc(=O)oc2c1)Cc1cccc(F)c1", "quantityMeasured": "pIC50", "assayValue": 4.27}
{"recordSmiles": "C#CCN(CCCOc1ccc2ccc(=O)oc2c1)Cc1ccc(F)c(F)c1", "quantityMeasured": "pIC50", "assayValue": 4.31}

[I] C#CCN(CCOc1ccc2ccc(=O)oc2c1)Cc1ccc(C)cc1
[II] C#CCN(CCCOc1ccc2ccc(=O)oc2c1)Cc1ccc(C)cc1
Prompt: Compare the recorded pIC50 of I and II ; state which is larger. Give the chosen item's label as your response.
Completion: I
